Kindly supply the reported kon values for the records listed here.
target.under.test: T1, human ST2L (human, UniProt Q01638 19-328, limits assumed)
T1 construct: also called IL-1R4; IL-33Ra
T1 sequence (looked up): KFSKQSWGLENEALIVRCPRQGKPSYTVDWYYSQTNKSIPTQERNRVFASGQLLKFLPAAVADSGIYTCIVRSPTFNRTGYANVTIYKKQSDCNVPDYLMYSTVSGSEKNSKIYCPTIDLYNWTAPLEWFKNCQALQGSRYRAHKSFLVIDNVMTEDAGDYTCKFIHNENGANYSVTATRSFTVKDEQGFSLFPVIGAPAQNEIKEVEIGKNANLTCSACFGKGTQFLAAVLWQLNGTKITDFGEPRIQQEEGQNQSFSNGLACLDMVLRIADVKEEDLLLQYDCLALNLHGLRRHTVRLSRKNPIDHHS
method.summary: affinity table; method not stated
Give just the numeric value; M⁻¹ s⁻¹ need not be written.

What the record says about STLM226 (antibody, from another filing, V domains shown) VH: EVQLVQSGAEVKKPGATVKISCKVSAFNIKDDYMHWVQQAPGKGLEWMGRIDPAIGNTEYAEKFQGRVTITADTSTDTAYMELSSLRSEDTAVYYCATGDFYAMAYWGQGTLVTVSS VL: DIQMTQSPSSLSASVGDRVTITCITNTDIDDVIHWYQQKPGKAPKLLIYEGNTLRPGVPSRFSGSGSGTDFTLTISSLQPEDFATYYCLQSDNLLTFGQGTKLEIK : kon is 2.16e+07

What the record says about STLM108 (antibody, from another filing, V domains shown) VH: EVQLLESGGGLVQPGGSLRLSCAASGFTFSIYDMIWVRQAPGKGLEWVSTIKGEGGGTYYADSVKGRFTISRDNSKNTLYLQMNSLRAEDTAVYYCARDPWSTEGSFFVLDYWGQGTLVTVSS VL: EIVLTQSPATLSLSPGERATLSCRASQSVDDDLAWYQQKPGQAPRLLIYDASNRATGIPARFSGSGSGTDFTLTISSLEPEDFAVYYCQQYIGAPITFGQGTKVEIK : kon is 2.29e+06

What the record says about STLM212 (antibody, from another filing, V domains shown) VH: EVQLLESGGGLVQPGGSLRLSCAASGFTFSVYDMIWVRQAPGKGLEWVSTIRGEGGGTYYADSVKGRFTISRDNSKNTLYLQMNSLRAEDTAVYYCARDPWSTEGSFFVLDYWGQGTLVTVSS VL: EIVLTQSPATLSLSPGERATLSCRASQSVDDDLAWYQQKPGQAPRLLIYDASNRATGIPARFSGSGSGTDFTLTISSLEPEDFAVYYCQQYNDAITFGQGTKVEIK : kon is 1.24e+07
